System: tubulin
protocol.text: Inhibition of [3H]colchicine binding to tubulin
Design: species or system Bovine
measurement.setup: compound at 5 μM, 5.0 µM [3H]colchicine, 1.0 µM tubulin
experimental.readout: Inhibition of Colchicine Binding (% inhibition ± SD) (%)
Response body: numeric value in %, unit text excluded.

Record "COc1ccc(N(C)c2nc(N)nc3sc4c(c23)CCCC4)cc1" , field Inhibition of Colchicine Binding (% inhibition ± SD): 99.0

Summary for this compound, "COc1ccc(N(C)c2nc(C)nc3sc4c(c23)CCCC4)cc1" : Inhibition of Colchicine Binding (% inhibition ± SD) is 96.0

Record "COc1ccc(N(C)c2ncnc3sc4c(c23)CCCC4)cc1" , field Inhibition of Colchicine Binding (% inhibition ± SD): 95.0

Summary for this compound, "CSc1ccc(N(C)c2nc(C)nc3sc4c(c23)CCCC4)cc1" : Inhibition of Colchicine Binding (% inhibition ± SD) is 89.0

Value of measured Inhibition of Colchicine Binding (% inhibition ± SD) for the entry "CSc1ccc(N(C)c2nc(N)nc3sc4c(c23)CCCC4)cc1" : 94.0

====

System: HeLa WTβIII cells
protocol.text: SRB assay in βIII-tubulin expressing HeLa WTβIII cells
Type: cell-based
measurement.setup: Homo sapiens, read-out: IC50 ± SD in HeLa WTβ3
experimental.readout: pIC50
# pIC50: negative log10 of molar concentration; output just the value

// CC(=O)O[C@H]1C(=O)[C@@]2(C)[C@H]([C@H](OC(=O)c3ccccc3)[C@]3(O)C[C@H](OC(=O)[C@H](O)[C@@H](NC(=O)c4ccccc4)c4ccccc4)C(C)=C1C3(C)C)[C@]1(OC(C)=O)CO[C@@H]1C[C@@H]2O [Paclitaxel, paclitaxel, reference compound] : pIC50 value = 7.62

Lab note: COc1cccc2cc(N(C)c3nc(C)nc4sc5c(c34)CCCC5)ccc12 [Compound 13] gave pIC50 of 6.86

Reported pIC50 of COc1ccc(N(C)c2nc(N)nc3sc4c(c23)CCCC4)cc1 [Compound 4] : 7.97

====

For each record, write down the corresponding pIC50.
System: MDA-MB-435 cells
protocol.text: Antiproliferative SRB assay in MDA-MB-435 cells
Assay type: cell-based, human
measurement.setup: Homo sapiens, read-out: IC50 ± SD in MDA-435 Cells
Formally, pIC50 is defined as -log10 of the concentration c, with c in mol/L.

Measured pIC50, "COc1ccc2c(c1)CCCN2c1nc(N)nc2sc3c(c12)CCCC3" : 7.22

Query "COc1ccc2c(c1)CCCN2c1nc(C)nc2sc3c(c12)CCCC3" yields pIC50 of 6.90

According to the records, this compound "COc1cccc2cc(N(C)c3nc(C)nc4sc5c(c34)CCCC5)ccc12" displays pIC50 of 7.09

pIC50 recorded for this compound, "COc1ccc(N(C)c2nc(C)nc3sc4c(c23)CCCC4)cc1" , is 7.28

Entry "CSc1ccc(N(C)c2nc(C)nc3sc4c(c23)CCCC4)cc1" ; pIC50 = 7.06

Form: compound = "COc1ccc(/C=C\c2cc(OC)c(OC)c(OC)c2)cc1O" ; pIC50 = 8.47
